Test system: A498 renal
Experiment: NCI-60 one-dose screen, 48 h (100 = growth as untreated, 0 = no growth, -100 = all killed)
Settings: 10 µM unless noted
This is part of a sample that, as a whole, favours compounds with a hit. Of some 83,000 tested, about 20% had one in any assay.
Readout name: growth (%)
# value in %; strip the unit string

Look up growth: Fc1ccc([I+]c2ccc(F)cc2)cc1
78.3

Which growth is reported for this compound? c1ccc(-c2nc3ccccc3s2)cc1
100

Need growth, item Nc1cc(N)c(N)cc1N
99.8

So what's the measured growth for this one? CC1=C/C(O)CC(=O)Cc2nc(co2)C(=O)N2CCC=C2C(=O)OC(C(C)C)C(C)/C=C\C(=O)NC/C=C\1 (stereo not given)
90.9

What measured growth goes with OCC1OC(O)C(O)C(O)C1O (stereo not given) ?
105

Query (compound): Cc1ccc(S(=O)(=O)c2ccccc2)cc1 ; field requested: growth
28

Endpoint output: growth of O=[N+]([O-])c1cccc(SSc2cccc([N+](=O)[O-])c2)c1 . Value?
119

What growth value was documented for this compound, c1ccc2c(c1)OC1OC2Oc2ccccc21 ?
117

// growth lookup, key: CCCCNc1ccc(Nc2ccccc2)cc1
82.7

Looking for the measured growth of CCCCOC(=O)/C=C\C(=O)NC(N)=O , can you help?
106

Request the reported growth associated with Cl
88.1

Using the record for CC1CCC2(OC1)OC1CC3C4CC=C5CC(O)CCC5(C)C4CCC3(C)C1C2C (stereo not given) , report its growth.
110

Report growth for N#CC(C#N)N=Nc1ccc(Cl)cc1 please.
86

# get_value(readout='growth', item= CC(C)C(C)(C)c1ccc(O)cc1 )
102

Data request, read-out growth, for CC1CCC2(C(=O)O)CCC3(C)C(=CCC4C5(C)CCC(O)C(C)(C)C5CCC43C)C2C1C (stereo not given)
103

* * *

Tested on: NCI/ADR-RES ovarian
Assay: NCI-60 one-dose screen, 48 h
Settings: 10 µM unless noted
Procedure: Growth inhibition of the NCI/ADR-RES human […] tumor cell line is measured as a screen for anti-cancer activity. Cells are grown in 96 well plates and exposed to the test compound for 48 hours. Compounds are tested at a single concentration, which is 10^-5 M for most compounds. The reported endpoint is percent growth (GI% or GIPRCNT), where numbers from 0 - 100% represent growth inhibition, and numbers from -100% - 0 represent cell death. For example, a value of 40 represents 60% growth inhibition. […]
This is part of a sample that, as a whole, favours compounds with a hit. Of some 83,000 tested, about 20% had one in any assay. Activity calls are given as the source filed them. The calls were made as follows: active = growth percent below 10; inactive = the rest.
Bench note: report the call from active, inactive

Called result for CC1=C/C(O)CC(=O)Cc2nc(co2)C(=O)N2CCC=C2C(=O)OC(C(C)C)C(C)/C=C\C(=O)NC/C=C\1 (stereo not drawn)
inactive

Please share the test call associated with Brc1ccc(SSc2ccc(Br)cc2)cc1 .
inactive

Look up the recorded call for CCCCNc1ccc(Nc2ccccc2)cc1 in this test.
inactive

Assay result, entry Nc1ccc2c(O)cc(S(=O)(=O)O)cc2c1 — outcome?
inactive

# lookup: test call for COc1ccc(Nc2ccc3ccccc3c2)cc1
inactive

Recorded test outcome, item CCCCCCCCCCNC(=O)CI
active

Hey, what did the test say about ClCCOCCOc1ccc(C2CCCCC2)cc1 ?
inactive

Dear all, I need the recorded test outcome for COc1ccc(C(=O)CC(c2ccccc2)C(C#N)c2ccccc2)cc1 (stereo not drawn) , thank you.
inactive

What is the recorded call for this molecule in the test? c1ccc(CNCCNCc2ccccc2)cc1
inactive

Dear colleague, could you share the recorded outcome for O=C(/C=C/c1ccccc1)c1ccccc1 when you have a moment?
inactive

Dear all, I need the recorded test outcome for NC(=O)NCCCC(N)C(=O)O (stereo not drawn) , thank you.
inactive

Hello, I am checking results. What call was entered for O=C1OC(c2ccccc2)=N/C1=C\c1ccccc1 ?
inactive

For this molecule, state the assay outcome: Cc1ccc(=O)[nH]n1
inactive

Hi, sorry to bother you, what did the test record for Nc1nc(N)c2[nH]cnc2n1 ?
inactive

Answer briefly: the call reported for C/C(=C\c1ccccc1)c1ccccn1 in this assay.
inactive

Call for entry CC1CCC(C(C)C)C(NNC(N)=O)C1 (stereo not drawn) :
inactive

Tell me the recorded outcome of this test for CC1(C)COC(=S)N1 .
inactive

What did the test return for N#CC(C#N)N=Nc1ccc(Cl)cc1 ?
inactive

What classification did Cc1ccc(S(=O)(=O)c2ccccc2)cc1 end up with in this test?
inactive

Give the logged outcome of this assay for the following molecule: CCCCCCCCCCCCCCCc1ccc(N)c(OC2OC(CO)C(O)C(O)C2O)c1 (stereo not drawn)
inactive

Per the assay record, what outcome was assigned to CC(=O)NCC(=O)c1ccc([N+](=O)[O-])cc1 ?
inactive

Hello, I am checking results. What call was entered for Cn1cnc([N+](=O)[O-])c1Sc1ncn[nH]1 ?
inactive

Just curious, what result did COc1ccc(N/C=C/C2=[N+](C)c3ccccc3C2(C)C)c(OC)c1 get here?
inactive

For CN(C)CC1CCCCCC(CN(C)C)C1=O (stereo not drawn) , what call appears in the results of this test?
inactive

# lookup: test call for CC(C)C(C)(C)c1ccc(O)cc1
inactive

Please share the test call associated with Fc1ccc([I+]c2ccc(F)cc2)cc1 .
inactive

Hi, do you know how O=[N+]([O-])c1cccc(SSc2cccc([N+](=O)[O-])c2)c1 came out in this test?
inactive

Lab log entry: O=C(O)CCCl — outcome as called in the assay?
inactive
